Entry source: the supplement of paper PMC10567573

B1: MATN2 (parent)
chain: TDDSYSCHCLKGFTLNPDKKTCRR

# Variants of: B1
# method-description: protein stability index of a GFP-peptide fusion (GPS, HEK-293T) (PSI 1-6); higher = more stable;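 note: lentivirally expressed fusions sorted by FACS into six bins by GFP to DsRed ratio, PSI derived from sequencing read proportions per bin multiplied by bin number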
# condition-info: c terminus: a fixed tail appended
measured-parameter: protein stability index
Answers are plain numbers.

A selection of reference data follows.
Return reported protein stability index. Input variant: C7H
3.54

Return reported protein stability index. Input variant: H8F
2.14

Return reported protein stability index. Input variant: C9P
4.53

Please examine the following record next.
Return reported protein stability index. Input variant: C7W
3.21
